- protocolNotes: Phase I clinical trial Part A: pharmacokinetics
- Assay type: in vivo
- testContext: male, human, plasma, po, 100 mg, 100 mg single oral dose; healthy male subjects; read-out: Cmax (Mean ± SD, ng/mL)
propertyLabel: Cmax (ng/mL)
Your answer should be a plain number; it is taken to be in ng/mL.

Entry C[C@H](Oc1ccc(Br)cc1-c1ccon1)C(=O)O [NMD670] : reported Cmax = ?
3980

====

- protocolNotes: Phase I clinical trial Part A: pharmacokinetics
- Type: in vivo
- testContext: male, human, plasma, po, 100 mg, 100 mg single oral dose; healthy male subjects; read-out: T1/2 (mean ± SD, hr) (converted)
propertyLabel: half-life
Output should be the measured figure followed by the unit it is expressed in.

Fill blank: measured half-life of the compound C[C@H](Oc1ccc(Br)cc1-c1ccon1)C(=O)O [NMD670] is ____.
5.07 h

# credit: patent US20260102377A1
